From: patent US20200024322A1

- target: T1, human GLP-1 receptor (human, UniProt P43220 24-463)
- T1 construct: whole, on cells; also called hGLP-1R; hGLP1R
- protocol.text: [125I]-GLP-1 competition SPA, hGLP-1R membranes
pKi: −log10 of the molar value.
measurement.kind: pKi

INSERT INTO measurements (binder, measurement_kind, measured_value) VALUES
  ('YXEGTFTSDYSIXLDKKAQXAFIEYLIEGGPSSG (Aib2; αMeL13; K17((2-[2-(2-Amino-ethoxy)-ethoxy]-acetyl)2-(γ-Glu)-CO-(CH2)16-CO2H); Aib20; C-terminal NH2) [Example 300]', 'pKi', 8.67),
  ('XXEGTFTSDYSIXLDXKAQXAFIEYLIAGGPSSGAPPPS (D-Tyr1; Aib2; αMeL13; Orn16; K17((2-[2-(2-Amino-ethoxy)-ethoxy]-acetyl)2-(γ-Glu)-CO-(CH2)18-CO2H); Aib20; C-terminal NH2) [Example 346]', 'pKi', 8.78),
  ('XXEGTXTSDYSILLDKKAQXAFIEYLIEGGPSSGAPPPS (D-Tyr1; Aib2; αMeF6; K17((2-[2-(2-Amino-ethoxy)-ethoxy]-acetyl)2-(γ-Glu)-CO-(CH2)18-CO2H); Aib20; C-terminal NH2) [Example 329]', 'pKi', 8.48);
